- Tested on: SK-MEL-2 melanoma
- ASSAY COMMENT: NCI-60 one-dose screen, 48 h
- CONDITION INFO: 10 µM unless noted
The panel holds about 83,000 compounds, 20% with a hit somewhere; the sample as a whole holds those more often. Active and inactive are the calls of the source. The calls were made as follows: active = growth percent below 10; inactive = the rest.
Hello, when you answer, please use one of the following outcomes: 1 (active), 0 (inactive)

Exercise: What was the test verdict on CC(C)c1ccc(C(=O)OC2CCCC2)cc1 ?
Key: 0

Exercise: Next: O=C(NOC(=O)c1ccccc1)c1ccccc1
Key: 0

Exercise: Please do the same for CCC(C)C(N)C(=O)NC(CC(N)=O)C(=O)NC(CC(C)C)C(=O)NC(CCCCN)C(=O)NC(C)C(=O)NC(CC(C)C)C(=O)NC(C)C(=O)NC(C)C(=O)NC(CC(C)C)C(=O)NC(C)C(=O)NC(CCCCN)C(=O)NC(CCCCN)C(=O)NC(C(=O)NC(CC(C)C)C(N)=O)C(C)CC (stereo not given) as well.
Key: 0

Exercise: Thanks! And O=C(O)c1ccc2c(c1)C(=O)c1ccccc1C2=O ?
Key: 0

Exercise: Next: CC1(O)CCCCCC1
Key: 0

Exercise: Try this molecule next: C/C=C/c1cc2c(c(=O)o1)C(=O)[C@@H](O)[C@H](C)O2
Key: 0

Exercise: Further, for Oc1ccc(Cl)cc1Cc1cc(Cl)ccc1O ?
Key: 1

Exercise: Another molecule to check: CCN(CC)CC(O)c1cc(-c2ccc(Cl)cc2)nc2cc(Cl)ccc12 (stereo not given)
Key: 0

Exercise: Please do the same for Cc1nc(Sc2nc3ccc([N+](=O)[O-])cc3s2)sc1C as well.
Key: 0

Exercise: What do you get for O=C1C=Cc2ccccc2/C1=C/c1nc(-c2ccccc2)oc1O ?
Key: 0
